Target: cdk2/cyclinE (Homo sapiens)
Assay: Cyclin-Dependent Kinase Assay cdk2/cyclinE
Settings: cdk2/E IC50
Strictly below 200 nM in IC50: Criterion met. Otherwise: Criterion not met.

# input Lab log: compare recorded IC50 with 200 nM; is it strictly lower for CC(C)n1c(=O)ccc2cnc(Nc3ccc(O)c(Cl)c3)nc21 ?
# output Criterion met

# input Field: below-cutoff. Rule: recorded IC50 strictly less than 200 nM. Subject: CC(C)n1c(=O)ccc2cnc(Nc3cc(C(F)(F)F)ccc3F)nc21
# output Criterion not met

# input # strict comparison: is reported IC50 < 200 nM? input = CCCn1c(=O)ccc2cnc(Nc3ccc(F)c(F)c3)nc21
# output Criterion met

# input Find out if reported IC50 for CCCCn1c(=O)ccc2cnc(Nc3cc(C)cc(C)c3)nc21 is less than 200 nM
# output Criterion met

# input Does the reported IC50 of CCCn1c(=O)ccc2cnc(Nc3cc(F)cc(F)c3)nc21 stay below 200 nM?
# output Criterion not met

# input Lab note: confirm whether the reported IC50 for this compound is below 200 nM, equality not counting. compound: CCCCn1c(=O)ccc2cnc(Nc3ccc(F)cc3)nc21
# output Criterion met

# input is_below(IC50, 200 nM) for O=c1ccc2cnc(Nc3cc(F)cc(F)c3)nc2n1CC1CC1 ?
# output Criterion not met

###

Can you tell me pIC50 for the items I'm about to list?
Molecular target: cdk2/cyclinA (Homo sapiens, UniProt P24941)
Assay: Cyclin-Dependent Kinase Assay cdk2/cyclinA
Conditions: cdk2/A IC50
# pIC50: negative log10 of molar concentration; output just the value

# input GET /values?readout=pIC50&item= CCC(CC)n1c(=O)ccc2cnc(Nc3cccc(O)c3)nc21
# output 6.92

# input Fill blank: measured pIC50 of the compound CCCCn1c(=O)ccc2cnc(Nc3ccc4[nH]ncc4c3)nc21 is ____.
# output 7.08

# input Param item = CC(C)n1c(=O)ccc2cnc(Nc3ccc(F)c(F)c3)nc21 ; retrieve measured pIC50.
# output 6.68

# input Record request: pIC50 value, item CCC(CC)n1c(=O)ccc2cnc(Nc3ccc(O)c(Cl)c3)nc21
# output 7.05

# input What does the data say about its pIC50? Entry: CCCn1c(=O)ccc2cnc(Nc3ccc(Br)c(C)c3)nc21
# output 6.00

###

Biological target: cdk4/D (Homo sapiens, UniProt P11802)
Sequence (P11802 whole entry): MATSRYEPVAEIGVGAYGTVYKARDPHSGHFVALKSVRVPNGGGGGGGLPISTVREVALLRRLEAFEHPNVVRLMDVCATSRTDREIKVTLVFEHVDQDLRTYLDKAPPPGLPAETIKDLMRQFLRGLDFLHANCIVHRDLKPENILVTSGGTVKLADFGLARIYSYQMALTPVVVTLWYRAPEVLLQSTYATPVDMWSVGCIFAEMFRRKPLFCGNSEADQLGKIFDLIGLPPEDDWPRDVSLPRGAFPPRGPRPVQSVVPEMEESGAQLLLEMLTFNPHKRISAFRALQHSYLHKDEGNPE
Sequence (P24385 whole entry, further chain): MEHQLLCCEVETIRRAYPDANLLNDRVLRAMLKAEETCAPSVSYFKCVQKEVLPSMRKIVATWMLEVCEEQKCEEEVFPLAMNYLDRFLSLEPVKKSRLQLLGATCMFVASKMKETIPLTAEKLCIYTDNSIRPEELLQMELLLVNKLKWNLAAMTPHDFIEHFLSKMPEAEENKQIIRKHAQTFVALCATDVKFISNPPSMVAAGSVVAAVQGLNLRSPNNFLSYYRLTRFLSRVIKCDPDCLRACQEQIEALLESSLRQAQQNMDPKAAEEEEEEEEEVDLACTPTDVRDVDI
Assay: Cyclin-Dependent Kinase 4 (cdk4) Assay
Format: biochemical
Settings: read-out: cdk4/D IC50
Give measured pIC50 for each item. Keep answers brief.
Remember the convention: pIC50 equals -log10 of concentration in molar.

# input I am curious: what pIC50 value has been reported for Cc1ccc(Nc2ncc3ccc(=O)n(C(C)C)c3n2)cc1NS(C)(=O)=O ?
# output 6.51

# input Any idea what pIC50 was measured for O=c1ccc2cnc(Nc3ccc(F)c(C(F)(F)F)c3)nc2n1C1CCCC1 ?
# output 6.47

# input Quick one: pIC50 for COc1cc(Nc2ncc3ccc(=O)n(C4CCCC4)c3n2)cc(C(F)(F)F)c1 ?
# output 6.55

# input Record request: pIC50 value, item CCCn1c(=O)ccc2cnc(Nc3ccc(C#N)cc3)nc21
# output 6.20

# input // pIC50 lookup, key: CCCn1c(=O)ccc2cnc(Nc3ccc(Br)c(C(F)(F)F)c3)nc21
# output 5.67

# input Consider the molecule CCCn1c(=O)ccc2cnc(Nc3ccc(F)c(Cl)c3)nc21 and give its measured pIC50.
# output 6.28

# input Entry under review: CC1Nc2ccc(Nc3ncc4ccc(=O)n(CC5CC5)c4n3)cc2C1C (stereo not shown) . Reported pIC50?
# output 6.26

# input Any idea what pIC50 was measured for CCCn1c(=O)ccc2cnc(Nc3ccc4c(c3)CCN4)nc21 ?
# output 6.44

# input Dear colleague, I am looking for the recorded pIC50 of the following molecule: CCCn1c(=O)ccc2cnc(Nc3cccc(C(F)(F)F)c3)nc21
# output 5.52

# input Name the reported pIC50 value associated with the molecule CCC(C)n1c(=O)ccc2cnc(Nc3cccc(S(N)(=O)=O)c3)nc21 (stereo not shown)
# output 7.52

# input Field request: pIC50 | item: Cc1ccc(Nc2ncc3ccc(=O)n(C4CCCC4)c3n2)cc1NS(C)(=O)=O
# output 7.16

# input Quick one: pIC50 of O=c1ccc2cnc(Nc3ccc4[nH]ccc4c3)nc2n1CC1CC1 ?
# output 7.06

# input Fill in: pIC50 of CCC(C)n1c(=O)ccc2cnc(Nc3ccc(C)c(C)c3)nc21 (stereo not shown) is ___
# output 6.64

# input Any idea what pIC50 was measured for Cn1c(=O)ccc2cnc(Nc3ccccc3)nc21 ?
# output 5.56

# input Using the record for CC(C)n1c(=O)ccc2cnc(Nc3cccc(S(N)(=O)=O)c3)nc21 , report its pIC50.
# output 7.46

# input What pIC50 value was documented for this molecule, CCCCn1c(=O)ccc2cnc(Nc3ccc(Cl)c(C)c3)nc21 ?
# output 6.51

# input Item under review: CC(C)n1c(=O)ccc2cnc(Nc3ccc(C(F)(F)F)cc3)nc21 . Reported pIC50?
# output 6.49

# input # lookup: pIC50 of CC(=O)Nc1ccc(Nc2ncc3ccc(=O)n(C(C)C)c3n2)cc1
# output 7.29

# input What does the data say about its pIC50? Entry: CCC(CC)n1c(=O)ccc2cnc(Nc3ccc(Cl)c(Cl)c3)nc21
# output 6.66

# input Recorded pIC50 of Cc1ccc(Nc2ncc3ccc(=O)n(C4CCCC4)c3n2)cc1C , please.
# output 7.15

# input Which pIC50 reading was recorded for the molecule CCC(CC)n1c(=O)ccc2cnc(Nc3cccc(I)c3)nc21 ?
# output 6.46

# input Given CCCCn1c(=O)ccc2cnc(Nc3ccc4[nH]ncc4c3)nc21 , state its recorded pIC50.
# output 6.85

# input Please give the measured pIC50 for this molecule: COc1ccc(Nc2ncc3ccc(=O)n(C4CCCC4)c3n2)cc1OC
# output 6.96

# input Form field: reported pIC50 of CCn1c(=O)ccc2cnc(Nc3ccc(O)cc3F)nc21
# output 5.49

# input Can you look up the measured pIC50 of CCC(CC)n1c(=O)ccc2cnc(Nc3ccc(Br)c(Cl)c3)nc21 for me?
# output 6.82

# input Find the recorded pIC50 belonging to CCC(CC)n1c(=O)ccc2cnc(Nc3ccc(F)c(C)c3)nc21 and report it.
# output 6.77

# input Reported pIC50, molecule O=c1ccc2cnc(Nc3ccc(F)c(C(F)(F)F)c3)nc2n1CC1CC1 : ____
# output 6.17

# input Please report the recorded pIC50 for CCC(CC)n1c(=O)ccc2cnc(Nc3ccc4c(c3)CCC4)nc21 .
# output 5.92

# input Record request: pIC50 value, item CCCn1c(=O)ccc2cnc(Nc3cc(C)cc(C)c3)nc21
# output 6.51

# input # pIC50 lookup, item CCCn1c(=O)ccc2cnc(Nc3cc([N+](=O)[O-])ccc3F)nc21
# output 6.17

# input What measured pIC50 goes with COc1ccc(Nc2ncc3ccc(=O)n(C(C)C)c3n2)cc1F ?
# output 7.18

# input pIC50 lookup needed for CCn1c(=O)ccc2cnc(Nc3ccc(C#N)c(NC(C)=O)c3)nc21 , thanks.
# output 5.82

# input Entry CCCCn1c(=O)ccc2cnc(Nc3cc(OC)cc(C(F)(F)F)c3)nc21 : reported pIC50 = ?
# output 5.96

# input Which pIC50 value belongs to CCC(CC)n1c(=O)ccc2cnc(Nc3cc(OC)cc(C(F)(F)F)c3)nc21 ?
# output 6.85

# input Recorded pIC50 for CCCn1c(=O)ccc2cnc(Nc3ccc(Br)c(C)c3)nc21 , please?
# output 6.41

# input Name the recorded pIC50 for CCn1c(=O)ccc2cnc(Nc3ccc4[nH]ccc4c3)nc21 .
# output 6.64

# input So what does the record say about pIC50 for CCn1c(=O)ccc2cnc(Nc3ccc(O)c(Cl)c3)nc21 ?
# output 5.77

###

Target: cdk4/D (Homo sapiens)
Assay: Cyclin-Dependent Kinase 4 (cdk4) Assay
Format: biochemical
Conditions: read-out: cdk4/D IC50
Classification scheme (IC50): low (below 200 nM), moderate (200 nM to below 400 nM), high (400 nM or more)

# input In plain terms, what class is CCCn1c(=O)ccc2cnc(Nc3ccc(Br)c(Cl)c3)nc21 ?
# output high

# input Please classify: Cc1cc(Nc2ncc3ccc(=O)n(CC4CC4)c3n2)cc(C)c1O
# output high

# input Please classify: CCC(C)n1c(=O)ccc2cnc(Nc3cccc([N+](=O)[O-])c3)nc21 (stereo not drawn)
# output moderate

# input Which of the defined bands does the recorded IC50 of CCn1c(=O)ccc2cnc(Nc3ccc(NC(=O)OC(C)(C)C)cc3)nc21 sit within?
# output high

# input Entry CCC(CC)n1c(=O)ccc2cnc(Nc3ccc4c(c3)NC(=O)CS4)nc21 belongs to which category?
# output low

# input Please indicate the class for O=c1ccc2cnc(Nc3ccc4c(c3)CCN4)nc2n1C1CCCC1 based on its IC50.
# output low

# input Hello team, could you let me know which band the following molecule falls into: CC(=O)Nc1cc(Nc2ncc3ccc(=O)n(CC4CC4)c3n2)ccc1C#N
# output low

# input Bin this entry: O=c1ccc2cnc(Nc3ccc4c(c3)CCN4)nc2n1CC1CC1
# output high

# input Using the reported IC50, which band applies to CCC(CC)n1c(=O)ccc2cnc(Nc3cc([N+](=O)[O-])ccc3F)nc21 ?
# output moderate

# input Lab note: sort O=c1ccc2cnc(Nc3ccc(O)c(Cl)c3)nc2n1C1CCCC1 into the matching IC50 band.
# output low

# input Class (by measured IC50) for Cc1ccc(Nc2ncc3ccc(=O)n(C(C)C)c3n2)cc1I
# output low

# input Pick a category. Item: CC(C)n1c(=O)ccc2cnc(Nc3ccc(NC(=O)OC(C)(C)C)cc3)nc21
# output low

# input For this molecule, which bin applies? CCCn1c(=O)ccc2cnc(Nc3ccc(C(F)(F)F)cc3)nc21
# output moderate

# input Note: place this molecule into its band. Item: CCC(C)n1c(=O)ccc2cnc(Nc3ccc(Cl)c(C(F)(F)F)c3)nc21 (stereo not drawn)
# output high

# input Tag the class for CC(C)n1c(=O)ccc2cnc(Nc3cccc([N+](=O)[O-])c3)nc21
# output moderate

# input Sort into band: CC(=O)Nc1cc(Nc2ncc3ccc(=O)n(C(C)C)c3n2)ccc1C
# output low

# input Exercise: read the entry CCCn1c(=O)ccc2cnc(Nc3cc(Cl)cc(Cl)c3)nc21 and state which class it falls under.
# output high

# input Into which bin does this molecule go? CCCCn1c(=O)ccc2cnc(Nc3ccc(I)c(Cl)c3)nc21
# output moderate

# input Class? Entry: O=c1ccc2cnc(Nc3cccc(O)c3)nc2n1CC1CC1
# output low

# input Exam item: assign CCC(CC)n1c(=O)ccc2cnc(Nc3ccc(F)c(C(F)(F)F)c3)nc21 to the correct category.
# output moderate

# input Dear colleague, I would appreciate it if you could identify the bin for CCCCn1c(=O)ccc2cnc(Nc3cc(Cl)c(O)c(Cl)c3)nc21 and reply at your convenience.
# output high

# input State the band of CCC(C)n1c(=O)ccc2cnc(Nc3ccc4[nH]ccc4c3)nc21 (stereo not drawn)
# output low

# input Determine which band this molecule sits in: CCCn1c(=O)ccc2cnc(Nc3ccc(C#N)c(NC(C)=O)c3)nc21
# output moderate

# input Hi, small favor: classify CCCCn1c(=O)ccc2cnc(Nc3ccc(O)c(Cl)c3)nc21 by its IC50 when you get a moment.
# output low

# input Each molecule maps to one class by IC50. Which class for CCC(C)n1c(=O)ccc2cnc(Nc3ccc(Br)c(C)c3)nc21 (stereo not drawn) ?
# output high

# input Assign a category based on measured IC50 for CCC(C)n1c(=O)ccc2cnc(Nc3ccc(F)c([N+](=O)[O-])c3)nc21 (stereo not drawn) and give only the class name.
# output high

# input Which band does O=c1ccc2cnc(Nc3ccc4nn[nH]c4c3)nc2n1CC(F)(F)F fall in?
# output high

# input Which class is correct for the following molecule? CC(=O)N(C)c1ccc(Nc2ncc3ccc(=O)n(C(C)C)c3n2)cc1
# output low

# input Category of CCCCn1c(=O)ccc2cnc(Nc3cc(C)cc(C)c3)nc21 :
# output high
